Please respond with reported MIC MRSA for every item in the list.
# Test system: MRSA (a wild clinical strain from the JCU culture collection)
# test-name: MIC determination, broth micro-dilution (CAMHB)
# Type: cell-based, methicillin-resistant S. aureus
# condition: Table 1; 37° C., 24 h
Your answer should be a plain number; it is taken to be in µg/mL.

For record Cc1ccnc(-c2cc(CCCCCCCCCCc3ccnc(-c4cc(C)ccn4)c3)ccn2)c1.F[P-](F)(F)(F)(F)F.F[P-](F)(F)(F)(F)F.F[P-](F)(F)(F)(F)F.F[P-](F)(F)(F)(F)F.[Ru+2].[Ru+2].c1cnc2c(c1)ccc1cccnc12.c1cnc2c(c1)ccc1cccnc12.c1cnc2c(c1)ccc1cccnc12.c1cnc2c(c1)ccc1cccnc12 [ΛΛ-Rubb10, [{Ru(phen)2}2(μ-bb10)](PF6)4] the listed MIC MRSA is 8

// MIC MRSA value for Cc1ccnc(-c2cc(CCCCCCCCCCc3ccnc(-c4cc(C)ccn4)c3)ccn2)c1.F[P-](F)(F)(F)(F)F.F[P-](F)(F)(F)(F)F.F[P-](F)(F)(F)(F)F.F[P-](F)(F)(F)(F)F.[Ru+2].[Ru+2].c1cnc2c(c1)ccc1cccnc12.c1cnc2c(c1)ccc1cccnc12.c1cnc2c(c1)ccc1cccnc12.c1cnc2c(c1)ccc1cccnc12 [ΔΔ-Rubb10, [{Ru(phen)2}2(μ-bb10)](PF6)4] : 4

###

# Test system: MRSA (a wild clinical strain from the JCU culture collection)
# test-name: MIC determination, broth micro-dilution (CAMHB)
# Assay type: cell-based, methicillin-resistant S. aureus
# condition: Table 4; CAMHB; all ΔΔ- enantiomers
quantity-name: MIC MRSA
Reply with just the number.

Note to self: MIC MRSA recorded for Cc1cc[n+]2c(c1)-c1cc(CCCCCCCc3cc[n+]4c(c3)-c3cc(C)cc[n+]3[Ru-4]435([n+]4cccc6ccc7ccc[n+]3c7c64)[n+]3cccc4ccc6ccc[n+]5c6c43)cc[n+]1[Ru-4]213([Cl])[n+]2ccccc2-c2cccc([n+]21)-c1cccc[n+]13 [Ru(μ-bb7)Ru—Cl, [Ru(phen)2(μ-bb7)Ru(terpy)Cl]] was 8

MIC MRSA measured on Cc1ccnc(-c2cc(CCCCCCCCCCCCCCCCc3ccnc(-c4cc(C)ccn4)c3)ccn2)c1.[Cl-].[Cl-].[Cl-].[Cl-].[Ru+2].[Ru+2].c1cnc2c(c1)ccc1cccnc12.c1cnc2c(c1)ccc1cccnc12.c1cnc2c(c1)ccc1cccnc12.c1cnc2c(c1)ccc1cccnc12 [Rubb16, [{Ru(phen)2}2(μ-bb16)]Cl4] = 1

// field: MIC MRSA; key: Cc1cc[n+]2c(c1)-c1cc(CCCCCCCc3cc[n+]4c(c3)-c3cc(C)cc[n+]3[Ru-4]435([n+]4cccc6ccc7ccc[n+]3c7c64)[n+]3cccc4ccc6ccc[n+]5c6c43)cc[n+]1[Ru-4]213([n+]2cccc4ccc5ccc[n+]1c5c42)[n+]1cccc2ccc4ccc[n+]3c4c21.F[P-](F)(F)(F)(F)F.F[P-](F)(F)(F)(F)F.F[P-](F)(F)(F)(F)F.F[P-](F)(F)(F)(F)F [Rubb7, [{Ru(phen)2}2(μ-bb7)](PF6)4] ; value = 16

// MIC MRSA value for Cc1cc[n+]2c(c1)-c1cc(CCCCCCCCCCCCc3cc[n+]4c(c3)-c3cc(C)cc[n+]3[Ru-4]435([Cl])[n+]4ccccc4-c4cccc([n+]43)-c3cccc[n+]35)cc[n+]1[Ru-4]213([Cl])[n+]2ccccc2-c2cccc([n+]21)-c1cccc[n+]13.F[P-](F)(F)(F)(F)F.F[P-](F)(F)(F)(F)F [Rubb12-Cl, [{Ru(terpy)(Cl)}2(μ-bb12)](PF6)2] : 1
